assay: in vivo; settings: female, SCID, mouse
Value type: concentration at 6 h (µM)
Please state the figure in µM; there is no need to write the unit.

Qu. May I ask what concentration at 6 h has been recorded for CC(C)c1cc(-c2nnc(O)n2-c2ccc(CN3CCN(C(=O)Oc4ccc(COC(=O)Nc5cccc6c5CN(C5CCC(=O)NC5=O)C6=O)cc4)CC3)c(F)c2)c(O)cc1O (stereo not shown) ?
Ans. 4.51

====

experiment: in vivo; conditions: female, SCID, mouse
Value type: concentration at 1 h

Qu. Could you tell me which concentration at 1 h is on file for CC(C)c1cc(-c2nnc(O)n2-c2ccc(CN3CCN(C(=O)Oc4ccc(COC(=O)Nc5cccc6c5CN(C5CCC(=O)NC5=O)C6=O)cc4)CC3)c(F)c2)c(O)cc1O (stereo not shown) [SDC-TRAP-0171] ?
Ans. 217 µM

====

assay: Solubility of SDC-TRAP-0063 (ganetespib placebo formulation, PEG-300); assay type: physicochemical; details: ganetespib placebo formulation, organic solvent or mixture, thermodynamic from solid, kinetic solubility in ganetespib placebo formulation; Lot8; 1 hr
Value type: solubility at 1 h

Qu. Requested read-out: solubility at 1 h. Entry: CCc1c2c(nc3ccc(OC(=O)N4CCC(CCn5ccc6cc(-n7c(O)nnc7-c7cc(C(C)C)c(O)cc7O)ccc65)CC4)cc13)-c1cc3c(c(=O)n1C2)COC(=O)[C@]3(O)CC
Ans. 36.2 mg/mL

====

tested on: H 3211 NSLC cells; assay: IC50 of continuous and pulsed exposure (Examples 9 and 10); format: cell-based; details: read-out: IC50, 1h-pulse/71h-compound free; 7.5 × 10^3 cells/well; two replicate columns
Task for the reader: assign each of the following compounds its reported IC50.

Qu. Give its IC50 value. Item: CCc1c2c(nc3ccc(OC(=O)N(C)CCOCCn4ccc5cc(-n6c(O)nnc6-c6cc(C(C)C)c(O)cc6O)ccc54)cc13)-c1cc3c(c(=O)n1C2)COC(=O)C3(O)CC (centres unmarked)
Ans. > 3000 nM

Qu. Quick check: IC50 of CCc1c2c(nc3ccc(OC(=O)N(C)CCn4ccc5cc(-n6c(O)nnc6-c6cc(C(C)C)c(O)cc6O)ccc54)cc13)-c1cc3c(c(=O)n1C2)COC(=O)C3(O)CC (centres unmarked) ?
Ans. > 3000 nM

====

For each record, write down the corresponding % Remaining (1 h).
assay: Mouse plasma stability protocol, up to 1 h (Examples 16-18); details: % Remaining of parent after 1 h incubation in mouse plasma at 37° C. (10 μM)
Write the value in % as a bare number.

Qu. Can you share its % Remaining (1 h)? I mean this compound: CCNC(=O)c1noc(-c2cc(C(C)C)c(O)cc2O)c1-c1ccc(CN2CCN(C(=O)Oc3ccc4nc5c(c(CC)c4c3)Cn3c-5cc4c(c3=O)COC(=O)C4(O)CC)CC2)cc1 (stereo not shown)
Ans. 60.8

Qu. May I ask what % Remaining (1 h) has been recorded for CCc1c2c(nc3ccc(O)cc13)-c1cc3c(c(=O)n1C2)COC(=O)C3(CC)OC(=O)CCC(=O)N1CCC(Cc2ccc(-n3c(O)nnc3-c3cc(C(C)C)c(O)cc3O)cc2)CC1 (stereo not shown) ?
Ans. 73.9

Qu. // lookup % Remaining (1 h) for CCc1c2c(nc3ccc(OC(=O)N4CCN(S(=O)(=O)N5CCC(CCn6ccc7cc(-n8c(O)nnc8-c8cc(C(C)C)c(O)cc8O)ccc76)CC5)CC4)cc13)-c1cc3c(c(=O)n1C2)COC(=O)C3(O)CC (stereo not shown)
Ans. 25.6

Qu. Quick one: % Remaining (1 h) for CCNC(=O)c1nnc(-c2cc(C(C)C)c(O)cc2O)n1-c1ccc(CN2CCC(C(=O)N3CCC(C(=O)OC4(CC)C(=O)OCc5c4cc4n(c5=O)Cc5c-4nc4ccc(O)cc4c5CC)CC3)CC2)cc1 (stereo not shown) ?
Ans. 96.0

Qu. If you can, please state the reported % Remaining (1 h) value of CCNC(=O)c1nnc(-c2cc(C(C)C)c(O)cc2O)n1-c1ccc(CN2CCC(C(=O)N3CCN(c4cc(C)c(OC(=O)Nc5cccc6c5CN(C5CCC(=O)NC5=O)C6=O)c(C)c4)CC3)CC2)cc1 (stereo not shown) .
Ans. 98.4

Qu. Could you tell me which % Remaining (1 h) is on file for CCc1c2c(nc3ccc(O)cc13)-c1cc3c(c(=O)n1C2)COC(=O)[C@@]3(CC)OC(=O)CN1CCC(CCc2ccc(-n3c(O)nnc3-c3cc(C(C)C)c(O)cc3O)cc2)CC1 ?
Ans. 114

Qu. Entry CCNC(=O)c1nnc(-c2cc(C(C)C)c(O)cc2O)n1-c1ccc2c(c1)CN(Cc1cc(OC)c(OC(=O)Nc3cccc4c3CN(C3CCC(=O)NC3=O)C4=O)c(OC)c1)C2 (stereo not shown) : reported % Remaining (1 h) = ?
Ans. 66.2

Qu. Query (compound): Cc1cc(COC(=O)Nc2cccc3c2CN(C2CCC(=O)NC2=O)C3=O)cc(C)c1OC(=O)N1CCN(Cc2ccc(-n3c(O)nnc3-c3cc(C(C)C)c(O)cc3O)cc2F)CC1 (stereo not shown) ; field requested: % Remaining (1 h)
Ans. 91.9

Qu. Recorded % Remaining (1 h) for CCNC(=O)c1nnc(-c2cc(C(C)C)c(O)cc2O)n1-c1ccc2c(c1)CN(S(=O)(=O)C1CCN(C(=O)Oc3ccc4nc5c(c(CC)c4c3)Cn3c-5cc4c(c3=O)COC(=O)C4(O)CC)CC1)C2 (stereo not shown) , please?
Ans. 15.2

Qu. Please report the recorded % Remaining (1 h) for CCNC(=O)c1nnc(-c2cc(C(C)C)c(O)cc2O)n1-c1ccc(CN2CCC(C(=O)N3CCC(N(C)C(=O)Oc4ccc5nc6c(c(CC)c5c4)Cn4c-6cc5c(c4=O)COC(=O)C5(O)CC)CC3)CC2)cc1 (stereo not shown) .
Ans. 74.7
